assay: total protein half-life in vivo (active degradation + dilution); higher = more stable protein; settings: wild type E. coli NCM3722; growth: N-lim chemostat; doubling time 12 h
Endpoint label: total protein half-life in vivo (h)
Answers are plain numbers, in h.

q: Report total protein half-life in vivo for MGFKCGIVGLPNVGKSTLFNALTKAGIEAANFPFCTIEPNTGVVPMPDPRLDQLAEIVKPQRTLPTTMEFVDIAGLVKGASKGEGLGNQFLTNIRETEAIGHVVRCFENDNIIHVSGKVNPADDIEVINTELALADLDTCERAIHRVQKKAKGGDKDAKAELAVLEKCLPQLENAGMLRALDLSAEEKAAIRYLSFLTLKPTMYIANVNEDGFENNPYLDQVREIAAKEGSVVVPVCAAVEADIAELDDEERDEFMQELGLEEPGLNRVIRAGYKLLNLQTYFTAGVKEVRAWTIPVGATAPQAAGKIHTDFEKGFIRAQTISFEDFITYKGEQGAKEAGKMRAEGKDYIVKDGDVMNFLFNV [P0ABU2] please.
a: 5.15

Others:
q: # input sequence: MTTMLEVAKRAGVSKATVSRVLSGNGYVSQETKDRVFQAVEESGYRPNLLARNLSAKSTQTLGLVVTNTLYHGIYFSELLFHAARMAEEKGRQLLLADGKHSAEEERQAIQYLLDLRCDAIMIYPRFLSVDEIDDIIDAHSQPIMVLNRRLRKNSSHSVWCDHKQTSFNAVAELINAGHQEIAFLTGSMDSPTSIERLAGYKDALAQHGIALNEKLIANGKWTPASGAEGVEMLLERGAKFSALVASNDDMAIGAMKALHERGVAVPEQVSVIGFDDIAIAPYTVPALSSVKIPVTEMIQEIIGRLIFMLDGGDFSPPKTFSGKLIRRDSLIAPSR ; wanted: its total protein half-life in vivo
a: 5.73

====

experiment: total protein half-life in vivo (active degradation + dilution); higher = more stable protein; settings: E. coli NCM3722 delta-clpP; growth: N-lim chemostat; doubling time 6 h
Can you tell me total protein half-life in vivo for the items I'm about to list?
One number for each entry, in h.

q: Consider the sequence shown here: MLVWLAEHLVKYYSGFNVFSYLTFRAIVSLLTALFISLWMGPRMIAHLQKLSFGQVVRNDGPESHFSKRGTPTMGGIMILTAIVISVLLWAYPSNPYVWCVLVVLVGYGVIGFVDDYRKVVRKDTKGLIARWKYFWMSVIALGVAFALYLAGKDTPATQLVVPFFKDVMPQLGLFYILLAYFVIVGTGNAVNLTDGLDGLAIMPTVFVAGGFALVAWATGNMNFASYLHIPYLRHAGELVIVCTAIVGAGLGFLWFNTYPAQVFMGDVGSLALGGALGIIAVLLRQEFLLVIMGGVFVVETLSVILQVGSFKLRGQRIFRMAPIHHHYELKGWPEPRVIVRFWIISLMLVLIGLATLKVR [P0A6W3] What is its recorded total protein half-life in vivo?
a: 5.83

q: Likewise for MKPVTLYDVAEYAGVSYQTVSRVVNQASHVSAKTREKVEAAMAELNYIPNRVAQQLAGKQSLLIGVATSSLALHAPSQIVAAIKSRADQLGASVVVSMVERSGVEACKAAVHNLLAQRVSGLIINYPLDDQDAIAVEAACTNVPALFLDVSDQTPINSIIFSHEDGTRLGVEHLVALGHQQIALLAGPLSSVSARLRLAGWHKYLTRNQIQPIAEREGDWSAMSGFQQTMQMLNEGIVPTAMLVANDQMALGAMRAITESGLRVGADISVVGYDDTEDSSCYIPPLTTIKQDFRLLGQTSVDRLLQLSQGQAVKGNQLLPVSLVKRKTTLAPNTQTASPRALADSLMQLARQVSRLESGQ ?
a: 5.64

q: What do you get for MPLLDSFTVDHTRMEAPAVRVAKTMNTPHGDAITVFDLRFCVPNKEVMPERGIHTLEHLFAGFMRNHLNGNGVEIIDISPMGCRTGFYMSLIGTPDEQRVADAWKAAMEDVLKVQDQNQIPELNVYQCGTYQMHSLQEAQDIARSILERDVRINSNEELALPKEKLQELHI ?
a: 4.79

q: Now try MQKFDTRTFQGLILTLQDYWARQGCTIVQPLDMEVGAGTSHPMTCLRELGPEPMAAAYVQPSRRPTDGRYGENPNRLQHYYQFQVVIKPSPDNIQELYLGSLKELGMDPTIHDIRFVEDNWENPTLGAWGLGWEVWLNGMEVTQFTYFQQVGGLECKPVTGEITYGLERLAMYIQGVDSVYDLVWSDGPLGKTTYGDVFHQNEVEQSTYNFEYADVDFLFTCFEQYEKEAQQLLALENPLPLPAYERILKAAHSFNLLDARKAISVTERQRYILRIRTLTKAVAEAYYASREALGFPMCNKDK .
a: 6.28

---
q: Form field: reported total protein half-life in vivo of MKKRVYLIAAVVSGALAVSGCTTNPYTGEREAGKSAIGAGLGSLVGAGIGALSSSKKDRGKGALIGAAAGAALGGGVGYYMDVQEAKLRDKMRGTGVSVTRSGDNIILNMPNNVTFDSSSATLKPAGANTLTGVAMVLKEYPKTAVNVIGYTDSTGGHDLNMRLSQQRADSVASALITQGVDASRIRTQGLGPANPIASNSTAEGKAQNRRVEITLSPL
a: 5.47
